- System: LOC_OS05G16824-cb004
- ASSAY REMARKS: thermal shift delta Tm vs DMSO control; higher = stronger stabilization (binding);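 further: purified Escherichia coli-expressed rice kinase domain construct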
- CONDITION DETAILS: 12.5 µM; protein concentration 2 µM
PARAMETER MEASURED: thermal shift delta Tm (°C)
Give your result in °C as a bare value.

Consider the worked cases shown below.
                                   compound  measured_number
0  CNC(=O)c1cc(Oc2ccc3nc(N[C@@H]4CCCC[C@H]4O)sc3c2)ccn1             2.01
1  CC(C)(C)c1cc(/C=C(\C#N)C(N)=S)cc(C(C)(C)C)c1O [Tyrphostin AG 879]            -5.25
2  C=CC(=O)Nc1cccc(Sc2nc(Nc3ccc(N4CCN(C)CC4)cc3)ncc2Cl)c1             7.67

# return recorded thermal shift delta Tm for entry Cc1nc2ccc(-n3ncc(C(=O)c4cc5ccccc5[nH]4)c3N)cc2[nH]1
0.01

----------
- Tested on: LOC_OS01G63280-cb003
- ASSAY REMARKS: thermal shift delta Tm vs DMSO control; higher = stronger stabilization (binding)
- CONDITION DETAILS: 12.5 µM; protein concentration 2 µM
Reported values of thermal shift delta Tm for individual entries
Give your result in °C as a bare value.

# return recorded thermal shift delta Tm for entry C[C@@H]1COCCN1c1cc(=O)n2c(n1)N(Cc1cncc(Cl)c1)[C@H](C(F)(F)F)CC2
0.61

# return recorded thermal shift delta Tm for entry Cc1ccc(NC(=O)c2ccc(CN3CCN(C)CC3)cc2)cc1Nc1nc(-c2cccnc2)cs1
0.19

----------
Reported values of thermal shift delta Tm for individual entries
- Tested on: LOC_OS04G41100-cb001
- Sequence (as listed by the source): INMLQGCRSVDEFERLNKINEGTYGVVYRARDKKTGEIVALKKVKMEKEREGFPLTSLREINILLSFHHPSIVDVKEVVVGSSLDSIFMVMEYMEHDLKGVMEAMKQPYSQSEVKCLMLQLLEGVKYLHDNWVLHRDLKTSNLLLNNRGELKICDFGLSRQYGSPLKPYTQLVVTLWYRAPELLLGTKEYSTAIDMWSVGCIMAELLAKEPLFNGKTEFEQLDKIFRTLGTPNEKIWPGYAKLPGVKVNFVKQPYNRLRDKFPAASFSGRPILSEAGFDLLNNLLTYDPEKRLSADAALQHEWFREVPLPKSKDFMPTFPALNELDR
- ASSAY REMARKS: thermal shift delta Tm vs DMSO control; higher = stronger stabilization (binding)
- CONDITION DETAILS: 12.5 µM; protein concentration 2 µM
Give your result in °C as a bare value.

                                   compound  measured_number
0  N#C/C(=C\c1ccc(O)c(O)c1)C(=O)NCc1ccccc1 [AG-490 (Tyrphostin B42)]             0.43
1  Nc1cccc(-c2cc3c(Oc4cccc(O)c4)ncnc3[nH]2)c1             1.12
2  Cn1cc(-c2ccc3nnc(C(F)(F)c4ccc5ncccc5c4)n3n2)cn1              0.6
3  CC1(C)C=Cc2c(ccc3c2OC[C@@H](c2ccc(O)cc2O)C3)O1 [Glabridin]              0.7
4  C[C@H](Nc1ncnc2[nH]cnc12)c1cc2ccc(F)cc2nc1-c1ccccn1             0.13

# return recorded thermal shift delta Tm for entry CCC[C@H](NC(=O)/C(C#N)=C/c1cccc(Br)n1)c1ccccc1 [Degrasyn (WP1130)]
-0.61

# return recorded thermal shift delta Tm for entry COc1ccc(-c2cc3nccn3c(Nc3ncccc3C(N)=O)n2)cc1OC
1.04

----------
- Tested on: LOC_OS02G14120-cb001
- ASSAY REMARKS: thermal shift delta Tm vs DMSO control; higher = stronger stabilization (binding)
- CONDITION DETAILS: 12.5 µM; protein concentration 2 µM
Reported values of thermal shift delta Tm for individual entries
Give your result in °C as a bare value.

Consider the worked cases shown below.
>>> df
                                   molecule          assay_target  measured_number
0  OC1CCC(Oc2cccc3cnc(Nc4ccc5nc[nH]c5c4)nc23)CC1 (centres undefined)  LOC_OS02G14120-cb001             11.4
1  Clc1ccc(Nc2nnc(Cc3ccncc3)c3ccccc23)cc1 [Vatalanib (PTK787) 2HCl]  LOC_OS02G14120-cb001             -0.4
2  CONC(=O)c1ccccc1Nc1cc(Nc2cc(C)nn2C(C)C)ncc1Cl  LOC_OS02G14120-cb001             3.22

Attention now shifts to the item below.
# return recorded thermal shift delta Tm for entry CN(C[C@@H]1COCCO1)S(=O)(=O)Nc1ccc2ccc3ncc(-c4cnn(C)c4)cc3c(=O)c2c1
8.53
